# Organism: Homo sapiens
# assay.summary: Selectivity ratio of Kd for human partial length RIPK1 (M1 to K305 residues) expressed in bacterial expression system to Kd for wild-type human partial length RIPK3 (M1 to Q307 residues) expressed in bacterial expression system
reported.endpoint: Ratio

structure_string=CCOC(=O)c1cccc(NC(=O)Nc2cc(Oc3ccc4nc(NC(=O)C5CC5)sc4c3)ccc2F)c1 obs_value="> 69.4"
structure_string=O=C(Nc1cccc(Br)c1)Nc1cc(Oc2ccc3nc(NC(=O)C4CC4)sc3c2)ccc1F obs_value="> 61.7"
structure_string=CC(=O)c1cccc(NC(=O)Nc2cc(Oc3ccc4nc(NC(=O)C5CC5)sc4c3)ccc2F)c1 obs_value="> 94.3"

* * *

Here, each record is paired with measured pEC50 data.
# System: HT-29
# assay.summary: Anti-necroptotic activity in human HT-29 cells assessed as inhibition of […]/SM-164/Z-VAD-fmk-induced necroptosis measured after 16 hrs by celltiter-glo luminescent cell viability assay
# condition.parameters: HT-29, 16 h
pEC50: −log10 of the molar value.
reported.endpoint: pEC50

structure_string=O=C(Cc1cccc([N+](=O)[O-])c1)Nc1cc(Oc2ccc3nc(NC(=O)C4CC4)sc3c2)ccc1F reported_endpoint=pEC50 qual== obs_value=6.21
structure_string=CCCCCCCCC(=O)Nc1nc2ccc(Oc3ccc(F)c(NC(=O)Cc4cccc(C(F)(F)F)c4)c3)c(C#N)c2s1 reported_endpoint=pEC50 qual=< obs_value=4.70
structure_string=Cn1cc(CC(=O)Nc2cc(Oc3ccc4nc(NC(=O)C5CC5)sc4c3)ccc2F)c2ccccc21 reported_endpoint=pEC50 qual== obs_value=5.42
structure_string=CCOC(=O)c1cccc(NC(=O)Nc2cc(Oc3ccc4nc(NC(=O)C5CC5)sc4c3)ccc2F)c1 reported_endpoint=pEC50 qual== obs_value=5.11
structure_string=N#Cc1c(Oc2ccc(F)c(NC(=O)Cc3cccc(C(F)(F)F)c3)c2)ccc2nc(NC(=O)OCc3ccccc3)sc12 reported_endpoint=pEC50 qual=< obs_value=4.70
structure_string=Cc1ccc(CC(=O)Nc2cc(Oc3ccc4nc(NC(=O)C5CC5)sc4c3)ccc2F)cc1C reported_endpoint=pEC50 qual== obs_value=5.78
structure_string=N#Cc1c(Oc2ccc(F)c(NC(=O)Cc3ccccc3)c2)ccc2nc(NC(=O)C3CC3)sc12 reported_endpoint=pEC50 qual=< obs_value=4.70
structure_string=O=C(Cc1ccc2c(c1)OCO2)Nc1cc(Oc2ccc3nc(NC(=O)C4CC4)sc3c2)ccc1F reported_endpoint=pEC50 qual== obs_value=5.63
structure_string=COc1cccc(NC(=O)Nc2cc(Oc3ccc4nc(NC(=O)C5CC5)sc4c3)ccc2F)c1 reported_endpoint=pEC50 qual== obs_value=5.86
structure_string=O=C(Cc1cccc(C(F)(F)F)c1Cl)Nc1cc(Oc2ccc3nc(NC(=O)C4CC4)sc3c2)ccc1F reported_endpoint=pEC50 qual=< obs_value=4.70
structure_string=N#Cc1c(Oc2ccc(F)c(NC(=O)c3cccc(C(F)(F)F)c3)c2)ccc2nc(NC(=O)C3CC3)sc12 reported_endpoint=pEC50 qual=< obs_value=4.70
structure_string=O=C(Nc1nc2ccc(Oc3ccc(F)c(NC(=O)C4(c5cccc(C(F)(F)F)c5)CC4)c3)cc2s1)C1CC1 reported_endpoint=pEC50 qual=< obs_value=4.70
structure_string=O=C(Nc1nc2ccc(Oc3ccc(F)c(NS(=O)(=O)c4cccc(C(F)(F)F)c4)c3)cc2s1)C1CC1 reported_endpoint=pEC50 qual=< obs_value=4.70
